The following compounds are shown together with reported melting point values.

Take a look at these entries with their results.
query: // melting point lookup, key: Cl.Cn1ccc2c1CC(c1ccccc1)CC2=NNC(=N)N (centres unmarked)
result: 205 °C (dec.)

query: Data request, read-out melting point, for CS(=O)(=O)O.Cc1ccnc2c1C(=NNC(=N)N)CC(c1sc(Cl)cc1Cl)C2 (centres unmarked) [Compound 143]
result: 168 to 172 °C

query: Quick one: melting point of Cc1ccc(F)cc1C1CC(=NNC(=N)N)c2c(C)ccnc2C1.Cl (centres unmarked) ?
result: 202 to 205 °C

query: So what's the measured melting point for this one? Cc1coc2c1/C(=N/NC(=N)N)CC(c1ccccc1F)C2.Cl (centres unmarked)
result: 288 °C (dec.)

query: Tell me the measured melting point of Cc1ccnc2c1C(=NNC(=N)N)CC(c1cc(F)ccc1O)C2.Cl (centres unmarked) , please.
result: 264 to 266 °C

***
query: So what's the measured melting point for this one? Cc1cnnc2c1C(=NNC(=N)N)CC(c1cc(Cl)ccc1F)C2.Cl (centres unmarked)
result: ≥ 300 °C

query: Record request: melting point value, item COc1ccccc1C1CC(=NNC(=N)N)c2c(C)n[nH]c2C1.Cl (centres unmarked)
result: 202 °C (dec.)

query: Record request: melting point value, item Cc1cc(C)c2c(n1)CC(c1ccccc1)CC2=NNC(=N)N.Cl (centres unmarked)
result: 270 °C (dec.)

###

Biological target: Na—H exchange (Rattus norvegicus)
Construct: The blood was centrifuged at 3000 rpm for 5 seconds to obtain platelet rich plasma (PRP); from tissue; host or cells: platelets in platelet rich plasma from abdominal aortic blood of male Wistar rats
Sequence (P26431 whole entry): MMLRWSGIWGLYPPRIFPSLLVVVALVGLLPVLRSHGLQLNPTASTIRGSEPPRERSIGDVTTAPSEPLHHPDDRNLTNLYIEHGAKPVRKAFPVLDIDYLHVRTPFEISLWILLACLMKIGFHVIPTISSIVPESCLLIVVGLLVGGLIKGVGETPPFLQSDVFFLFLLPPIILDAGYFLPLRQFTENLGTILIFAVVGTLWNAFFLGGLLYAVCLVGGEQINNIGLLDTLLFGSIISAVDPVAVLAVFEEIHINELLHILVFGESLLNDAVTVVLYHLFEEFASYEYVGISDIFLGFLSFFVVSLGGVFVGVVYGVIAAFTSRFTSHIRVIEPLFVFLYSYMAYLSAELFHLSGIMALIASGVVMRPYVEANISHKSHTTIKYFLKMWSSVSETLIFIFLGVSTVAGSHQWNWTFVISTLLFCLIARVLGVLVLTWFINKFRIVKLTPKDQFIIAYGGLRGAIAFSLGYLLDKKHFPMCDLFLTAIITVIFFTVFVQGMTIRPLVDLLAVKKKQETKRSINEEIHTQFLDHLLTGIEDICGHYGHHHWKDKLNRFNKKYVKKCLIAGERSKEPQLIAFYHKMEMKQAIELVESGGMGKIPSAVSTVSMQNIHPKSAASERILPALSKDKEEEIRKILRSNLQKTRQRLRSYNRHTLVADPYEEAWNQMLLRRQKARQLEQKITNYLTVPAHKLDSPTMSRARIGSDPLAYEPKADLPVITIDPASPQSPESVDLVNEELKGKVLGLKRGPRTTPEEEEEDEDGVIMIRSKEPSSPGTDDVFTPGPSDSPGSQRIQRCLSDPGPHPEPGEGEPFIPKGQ
Assay: Rat platelet swelling in sodium propionate solution (light transmittance of PRP), inhibition of Na—H exchange
Type: cell-based
Conditions: 1 min, test compound 10^−7 M; rat platelet rich plasma; value 1 minute after sodium propionate solution; 100% = difference between 1% DMSO and HOE-642 (10^−5M); read-out: Inhibition Rate (%) [10^−7 M]
MEASUREMENT NAME: inhibition at 0.1 µM (%)

Consider the worked cases shown below.
query: Would you kindly share the measured inhibition at 0.1 µM for Cc1n[nH]c2c1C(=NNC(=N)N)CC(c1cc(Cl)sc1Cl)C2.Cl (stereo not drawn) [Compound 127, hydrochloride] ?
result: 98

query: Item Cc1cnnc2c1C(=NNC(=N)N)CC(c1ccccc1Cl)C2.Cl (stereo not drawn) [Compound 129, hydrochloride] has what recorded inhibition at 0.1 µM?
result: 80

query: Name the reported inhibition at 0.1 µM value associated with the compound CCc1n[nH]c2c1C(=NNC(=N)N)CC(c1ccccc1Cl)C2.Cl (stereo not drawn) [Compound 27, hydrochloride]
result: 76

query: Any idea what its inhibition at 0.1 µM is? The compound is CS(=O)(=O)O.Cc1ccnc2c1C(=NNC(=N)N)CC(c1cc(Cl)sc1Cl)C2 (single isomer, unassigned; (-)) [Compound 113, methanesulfonate]
result: 100

query: Could you share which inhibition at 0.1 µM value was measured for COc1ccnc2c1C(=NNC(=N)N)CC(c1ccccc1Cl)C2.CS(=O)(=O)O (stereo not drawn) [Compound 79, methanesulfonate] ?
result: 77

[a] Cc1n[nH]c2c1C(=NNC(=N)N)CC(c1sccc1Cl)C2.Cl (stereo not drawn) [Compound 119, hydrochloride]
[b] Cc1n[nH]c2c1C(=NNC(=N)NO)CC(c1ccccc1Cl)C2.Cl (stereo not drawn) [Compound 93, hydrochloride]
query: Pick one: a or b . Which has the bigger inhibition at 0.1 µM number? Let me know the label of the one you choose.
result: a

###

MEASUREMENT NAME: melting point

Below, each entry is followed by its recorded melting point result.
query: What melting point value was documented for this molecule, Cl.N=C(N)N/N=C1\CC(c2ccccc2)Cc2occ(C(F)(F)F)c21 (stereo not drawn) ?
result: 291 °C (dec.)

query: Requested read-out: melting point. Entry: Cc1ccnc2c1C(=NNC(=N)N)CC(c1cc(Cl)sc1Cl)C2.O=S(=O)(O)O (stereo not drawn)
result: 239 to 242 °C

query: Query: melting point; subject: Cc1coc2c1C(=NNC(=N)N)CC(c1ccc(F)cc1F)C2.Cl (stereo not drawn)
result: 278 °C (dec.)

query: So what's the measured melting point for this one? Cc1ccnc2c1C(=NNC(=N)NO)CC(c1cc(Br)sc1Br)C2.Cl (stereo not drawn)
result: 194 to 196 °C (dec.)

query: Fill in the blank: the reported melting point of Cc1cc(C)c2c(n1)CC(c1ccccc1Cl)CC2=NNC(=N)N.Cl (stereo not drawn) is ____.
result: 227 °C (dec.)

query: What does the record list as melting point for Cc1ccnc2c1C(=NNC(=N)N)CC(c1ccccn1)C2.Cl (stereo not drawn) ?
result: 260 °C (dec.)

query: Endpoint output: melting point of Cc1cn(C)c2c1C(=NNC(=N)N)CC(c1ccccc1)C2.Cl (stereo not drawn) . Value?
result: 230 °C (dec.)

query: Report melting point for CCc1c[nH]c2c1C(=NNC(=N)N)CC(c1ccccc1)C2.Cl (stereo not drawn) please.
result: 158 to 160 °C

Others:
query: What does the record list as melting point for Cc1n[nH]c2c1C(=NNC(=N)N)CC(c1ccccc1O)C2.Cl (stereo not drawn) ?
result: 168 °C (dec.)

query: Any idea what its melting point is? The molecule is Cc1coc2c1/C(=N/NC(=N)N)CC(c1cccc(Cl)c1Cl)C2.Cl (stereo not drawn)
result: 286 °C (dec.)

query: Item Cc1ccc(Cl)c(C2CC(=NNC(=N)N)c3c(C)cnnc3C2)c1.Cl (stereo not drawn) has what recorded melting point?
result: 240 to 242 °C

query: Param item = Cc1ccnc2c1C(=NNC(=N)NO)CC(c1ccco1)C2.Cl (stereo not drawn) ; retrieve measured melting point.
result: 196 to 198 °C (dec.)

query: Record request: melting point value, item CS(=O)(=O)O.Cc1ccnc2c1C(=NNC(=N)N)CC(c1ccccc1Cl)C2 (stereo not drawn) [Compound 65]
result: 194 to 196 °C

query: Please look up its melting point: Cc1ccc(F)cc1C1CC(=NNC(=N)N)c2c(C)cnnc2C1.Cl (stereo not drawn)
result: 240 °C (dec.)

query: Using the record for Cc1nn(CCCc2ccccc2)c2c1C(=NNC(=N)N)CC(c1ccccc1Cl)C2.Cl (stereo not drawn) , report its melting point.
result: 210 °C (dec.)

###

MEASUREMENT NAME: melting point

query: Reported melting point for Cc1ccc(C2Cc3occc3/C(=N/NC(=N)N)C2C)s1.Cl (stereo not shown) : what is it?
result: 287 °C (dec.)

Next:
query: Look up melting point: Cc1ccnc2c1C(=NNC(=N)N)CC(c1cccs1)C2.Cl (stereo not shown)
result: 225 °C (dec.)

query: Recorded melting point for Cc1ccnc2c1C(=NNC(=N)N)CC(c1cc(Cl)sc1Cl)C2 (racemic) [Compound 108] , please?
result: 250 to 251 °C

query: # input compound: Cc1ccnc2c1C(=NNC(=N)NO)CC(c1ccsc1)C2.Cl (stereo not shown) ; wanted: its melting point
result: 201 to 202 °C (dec.)

query: Recorded melting point of Cl.N=C(N)NN=C1CC(c2ccccc2Cl)Cc2[nH]nc(Nc3ccccc3)c21 (stereo not shown) , please.
result: 208 to 210 °C

query: Dear colleague, I am looking for the recorded melting point of the following compound: Cc1n[nH]c2c1C(=NNC(=N)NO)CC(c1cc(Cl)sc1Cl)C2.Cl (stereo not shown)
result: 190 to 192 °C (dec.)

query: Entry Cc1ccnc2c1C(=NNC(=N)N)CC(c1ccc(F)cc1F)C2.Cl (stereo not shown) has what melting point?
result: 286 °C (dec.)

query: Give the measured melting point of CS(=O)(=O)n1ccc2c1CC(c1ccccc1)CC2=NNC(=N)N.Cl (stereo not shown) .
result: 270 °C (dec.)

query: Query: melting point; subject: CS(=O)(=O)O.N=C(N)NN=C1CC(c2ccccc2Cl)Cc2nncc(C(F)(F)F)c21 (stereo not shown)
result: 207 to 208 °C

query: Which value of melting point has been reported for Cc1cc(=O)n(C)c2c1C(=NNC(=N)N)CC(c1ccsc1)C2.Cl (stereo not shown) in the records?
result: 156 to 157 °C

###

MEASUREMENT NAME: melting point

Worked cases, melting point given:
query: Which measured melting point value corresponds to Cc1c[nH]c2c1C(=NNC(=N)N)CC(c1ccccc1)C2.Cl (centres unmarked) ?
result: 176 °C (dec.)

query: Requested field: melting point. Item: Cc1ccnc2c1C(=NNC(=N)NO)CC(c1ccccc1Cl)C2.Cl (centres unmarked)
result: 185 to 187 °C

query: Need melting point of Cl.N=C(N)N/N=C1\CC(c2ccco2)Cc2occ(C(F)(F)F)c21 (centres unmarked) , thanks.
result: 282 °C (dec.)

Now, please, on to the next compound.
query: Which melting point is reported for this compound? Cl.N=C(N)NN=C1CC(c2ccccc2Cl)Cc2[nH]nc(-c3ccccc3)c21 (centres unmarked)
result: 185 °C (dec.)
